Data origin: paper PMC6016062

Target: T1, human O-GlcNAc transferase (human, UniProt O15294 1-1046)
T1 sequence (looked up): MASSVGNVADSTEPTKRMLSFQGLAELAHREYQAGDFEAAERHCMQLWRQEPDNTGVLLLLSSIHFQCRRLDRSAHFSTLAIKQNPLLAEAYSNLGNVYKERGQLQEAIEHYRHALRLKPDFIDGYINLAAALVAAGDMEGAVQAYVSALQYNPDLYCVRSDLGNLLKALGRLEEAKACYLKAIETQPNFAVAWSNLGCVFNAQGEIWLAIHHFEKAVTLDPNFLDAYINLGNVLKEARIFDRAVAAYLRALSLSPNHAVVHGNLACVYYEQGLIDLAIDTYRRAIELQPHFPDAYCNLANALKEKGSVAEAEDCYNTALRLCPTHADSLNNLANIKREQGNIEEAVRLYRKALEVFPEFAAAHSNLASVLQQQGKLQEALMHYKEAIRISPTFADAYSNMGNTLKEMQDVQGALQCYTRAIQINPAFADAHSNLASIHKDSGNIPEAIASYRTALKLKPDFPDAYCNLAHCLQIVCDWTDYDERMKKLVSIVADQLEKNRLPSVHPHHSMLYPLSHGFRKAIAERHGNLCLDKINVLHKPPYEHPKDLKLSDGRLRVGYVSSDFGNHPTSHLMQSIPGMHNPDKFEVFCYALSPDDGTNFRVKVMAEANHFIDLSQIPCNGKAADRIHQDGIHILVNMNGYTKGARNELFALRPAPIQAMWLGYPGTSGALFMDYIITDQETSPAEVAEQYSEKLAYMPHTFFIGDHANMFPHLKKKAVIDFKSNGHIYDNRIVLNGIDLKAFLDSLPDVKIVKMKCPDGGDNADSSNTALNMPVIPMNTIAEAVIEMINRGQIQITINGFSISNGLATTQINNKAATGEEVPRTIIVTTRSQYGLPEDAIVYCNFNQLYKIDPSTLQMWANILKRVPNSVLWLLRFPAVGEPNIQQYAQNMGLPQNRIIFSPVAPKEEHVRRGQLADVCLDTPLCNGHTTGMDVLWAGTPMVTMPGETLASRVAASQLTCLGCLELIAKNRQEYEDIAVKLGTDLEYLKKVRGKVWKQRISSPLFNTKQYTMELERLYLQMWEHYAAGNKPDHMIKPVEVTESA
Assay: fluorescence polarisation; competition: displacement of the fluorescent probe 17 from hOGT by unlabeled conjugates, Ki derived
Conditions: both partners purified
No end group written: not given here.
ASSAY METRIC: pKi
Numbers only, as −log10 of the molar value.

Item VTPVS(O‑propyl‑UDP)TA [O-linked UDP-peptide conjugate 1, VTPVS(O-propyl-UDP)TA] has what recorded pKi?
5.15
